// provenance: ChEMBL document CHEMBL5291721

- assayTarget: D(1A) dopamine receptor (Homo sapiens); note: assay procedure not described here
- Sequence (P21728 whole entry): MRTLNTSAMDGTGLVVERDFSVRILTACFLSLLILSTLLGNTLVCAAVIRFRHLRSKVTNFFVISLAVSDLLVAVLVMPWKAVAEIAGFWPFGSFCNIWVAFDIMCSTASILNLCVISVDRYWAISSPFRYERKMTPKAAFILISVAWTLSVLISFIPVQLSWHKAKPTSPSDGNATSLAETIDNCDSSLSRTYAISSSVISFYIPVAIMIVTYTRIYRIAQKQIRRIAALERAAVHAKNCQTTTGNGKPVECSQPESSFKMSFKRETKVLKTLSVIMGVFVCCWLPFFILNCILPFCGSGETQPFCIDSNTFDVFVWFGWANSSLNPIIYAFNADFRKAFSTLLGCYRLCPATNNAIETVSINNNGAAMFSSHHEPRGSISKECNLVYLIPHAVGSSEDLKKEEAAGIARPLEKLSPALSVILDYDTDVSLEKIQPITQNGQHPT
- Assay type: functional, cell-based
experimentalEndpoint: AC50

{"molecule": "CCC(=O)O[C@](Cc1ccccc1)(c1ccccc1)[C@H](C)CN(C)C", "AC50": "> 10 µM"}
{"molecule": "NC[C@H]1CC[C@H](C(=O)Oc2ccc(CCC(=O)O)cc2)CC1 [CETRAXATE]", "AC50": "> 30 µM"}
{"molecule": "CCCN(CCC)S(=O)(=O)c1ccc(C(=O)O)cc1", "AC50": "> 10 µM"}
{"molecule": "CCCCCCCN(CC)CCCC(O)c1ccc(NS(C)(=O)=O)cc1 (stereo not given) [IBUTILIDE]", "AC50": "> 30 µM"}
{"molecule": "CC=CC1=C(C(=O)O)N2C(=O)[C@@H](NC(=O)[C@H](N)c3ccc(O)cc3)[C@H]2SC1", "AC50": "> 30 µM"}
{"molecule": "Clc1ccc(Cn2c(CN3CCCC3)nc3ccccc32)cc1", "AC50": "> 30 µM"}
{"molecule": "CCCc1cc(=O)[nH]c(=S)[nH]1", "AC50": "> 10 µM"}
{"molecule": "CC(C)C[C@H](NC(=O)[C@@H](O)[C@H](N)Cc1ccccc1)C(=O)O", "AC50": "> 30 µM"}

**Query** Identify the reported AC50 for the following entry. CN[C@]1(c2ccccc2Cl)CCCCC1=O
**Result** > 30 µM

====

- assayTarget: Histamine H3 receptor (Homo sapiens); note: assay procedure not described here
- Sequence (Q9Y5N1 whole entry): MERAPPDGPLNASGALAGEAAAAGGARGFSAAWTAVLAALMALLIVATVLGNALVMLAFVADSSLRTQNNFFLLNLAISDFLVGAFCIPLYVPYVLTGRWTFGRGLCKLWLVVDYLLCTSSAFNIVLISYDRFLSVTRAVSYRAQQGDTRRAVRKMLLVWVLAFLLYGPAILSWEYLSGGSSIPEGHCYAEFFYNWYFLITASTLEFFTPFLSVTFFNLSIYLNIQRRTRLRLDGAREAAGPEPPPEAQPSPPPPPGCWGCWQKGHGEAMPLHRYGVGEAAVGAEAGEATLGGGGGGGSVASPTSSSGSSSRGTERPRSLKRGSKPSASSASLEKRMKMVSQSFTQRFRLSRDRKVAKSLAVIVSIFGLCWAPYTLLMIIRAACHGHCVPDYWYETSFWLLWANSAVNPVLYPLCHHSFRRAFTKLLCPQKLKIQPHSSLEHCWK
experimentalEndpoint: AC50

{"molecule": "CC1(C)S[C@@H]2[C@H](NC(=O)C(C(=O)O)c3ccccc3)C(=O)N2[C@H]1C(=O)O (stereo partly drawn)", "AC50": "> 30 µM"}
{"molecule": "C=CC[N+]1([C@H]2C[C@H]3[C@@H]4CC[C@H]5C[C@H](O)[C@@H](N6CCOCC6)C[C@]5(C)[C@H]4CC[C@]3(C)[C@H]2OC(C)=O)CCCC1", "AC50": "> 30 µM"}
{"molecule": "O=C1Nc2ccc(Cl)cc2C(c2ccccc2Cl)=NC1O (stereo not drawn)", "AC50": "> 10 µM"}
{"molecule": "CCCN1CC(NS(=O)(=O)N(CC)CC)CC2Cc3c(O)cccc3CC21 (stereo not drawn) [QUINAGOLIDE]", "AC50": "> 30 µM"}
{"molecule": "C[C@@H]1C[C@H]2[C@@H]3CCC4=CC(=O)C=C[C@]4(C)[C@@]3(F)[C@@H](O)C[C@]2(C)[C@@]1(O)C(=O)CO", "AC50": "> 30 µM"}

**Query** Identify the reported AC50 for the following entry. CN(C)C/C=C/C(=O)Nc1cc2c(Nc3ccc(F)c(Cl)c3)ncnc2cc1O[C@H]1CCOC1
**Result** > 30 µM

**Query** Identify the reported AC50 for the following entry. C=CCN1CCc2nc(N)sc2CC1 [TALIPEXOLE]
**Result** 3.3 µM

====

- assayTarget: UniProt:P11229
- Sequence (P11229 whole entry): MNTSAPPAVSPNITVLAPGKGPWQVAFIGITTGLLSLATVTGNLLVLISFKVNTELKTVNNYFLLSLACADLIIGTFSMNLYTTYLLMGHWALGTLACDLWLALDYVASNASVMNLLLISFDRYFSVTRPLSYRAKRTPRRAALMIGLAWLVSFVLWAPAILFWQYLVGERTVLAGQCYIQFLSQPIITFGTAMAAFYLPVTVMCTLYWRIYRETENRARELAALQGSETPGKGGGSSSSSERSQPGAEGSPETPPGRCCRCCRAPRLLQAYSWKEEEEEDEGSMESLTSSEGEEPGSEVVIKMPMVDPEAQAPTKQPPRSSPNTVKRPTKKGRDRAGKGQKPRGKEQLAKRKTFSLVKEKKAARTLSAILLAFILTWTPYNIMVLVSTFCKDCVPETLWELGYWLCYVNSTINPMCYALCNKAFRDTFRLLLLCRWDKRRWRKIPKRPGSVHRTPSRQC
- Format: functional, cell-based
experimentalEndpoint: AC50

{"compound": "Cc1ccc(S(=O)(=O)NC(=O)NC2CCCCC2)cc1 [GLYCYCLAMIDE]", "AC50": "> 30 µM"}
{"compound": "CC(OCCN1CCCCCC1)(c1ccccc1)c1ccc(Cl)cc1 (centres undefined) [SETASTINE]", "AC50": "0.493 µM"}
{"compound": "Cc1cc(=O)oc2cc(O)ccc12 [HYMECROMONE]", "AC50": "> 30 µM"}

**Query** Identify the reported AC50 for the following entry. C[C@H]1CN(C[C@H](Cc2ccccc2)C(=O)NCC(=O)O)CC[C@@]1(C)c1cccc(O)c1 [ALVIMOPAN]
**Result** > 30 µM

**Query** Identify the reported AC50 for the following entry. CC(=O)NCCCCCC(=O)O [ACEXAMIC ACID]
**Result** > 30 µM

**Query** Identify the reported AC50 for the following entry. C[N+]1(C)CCCC(OC(=O)C(O)(c2ccccc2)c2ccccc2)C1 (centres undefined) [MEPENZOLATE]
**Result** > 30 µM

**Query** Identify the reported AC50 for the following entry. COc1c2occc2c(OC)c2c(=O)cc(C)oc12 [KHELLIN]
**Result** > 30 µM

**Query** Identify the reported AC50 for the following entry. Cc1cc(=O)[nH]c(=S)[nH]1 [METHYLTHIOURACIL]
**Result** > 30 µM

**Query** Identify the reported AC50 for the following entry. CC[C@]12CCCN3CCc4c(n(c5ccccc45)[C@@](O)(C(=O)OC)C1)[C@@H]32 [VINCAMINE]
**Result** > 30 µM

**Query** Identify the reported AC50 for the following entry. CCCSc1nc(N[C@@H]2C[C@H]2c2ccc(F)c(F)c2)c2nnn([C@@H]3C[C@H](OCCO)[C@@H](O)[C@H]3O)c2n1 [TICAGRELOR]
**Result** 8.29 µM

**Query** Identify the reported AC50 for the following entry. COC(=O)[C@@H](N)Cc1ccc(O)c(O)c1 [MELEVODOPA]
**Result** 22.1 µM

**Query** Identify the reported AC50 for the following entry. CCNC(=O)/C=C(C)/C=C/C=C(C)/C=C/c1c(C)cc(OC)c(C)c1C [MOTRETINIDE]
**Result** 16.6 µM

**Query** Identify the reported AC50 for the following entry. CC(COc1ccccc1)NC(C)C(O)c1ccc(O)cc1 (centres undefined) [ISOXSUPRINE]
**Result** > 30 µM

**Query** Identify the reported AC50 for the following entry. O=C(O)Cc1ccccc1Oc1ccc(Cl)cc1Cl [FENCLOFENAC]
**Result** 23.6 µM

**Query** Identify the reported AC50 for the following entry. C=CC(=O)Nc1cccc(Oc2nc(Nc3ccc(N4CCN(C)CC4)cc3)nc3ccsc23)c1 [OLMUTINIB]
**Result** 2.29 µM

**Query** Identify the reported AC50 for the following entry. C[C@@H]1C[C@H]2[C@@H]3C[C@H](F)C4=CC(=O)C=C[C@]4(C)[C@@]3(F)[C@@H](O)C[C@]2(C)[C@@]1(OC(=O)c1ccco1)C(=O)SCF [FLUTICASONE FUROATE]
**Result** > 30 µM

**Query** Identify the reported AC50 for the following entry. CC1(CCN2CCCCC2)C(=O)CCc2ccccc21 (centres undefined) [NEPINALONE]
**Result** > 30 µM

**Query** Identify the reported AC50 for the following entry. C=C(C)CNc1ccc(C(C)C(=O)O)cc1 (centres undefined) [ALMINOPROFEN]
**Result** > 30 µM

**Query** Identify the reported AC50 for the following entry. CN1CCCN(C(c2ccccc2)c2ccc(Cl)cc2)CC1 (centres undefined) [HOMOCHLORCYCLIZINE]
**Result** 0.12 µM

**Query** Identify the reported AC50 for the following entry. O=C1Cc2cc(CCN3CCN(c4nsc5ccccc45)CC3)c(Cl)cc2N1 [ZIPRASIDONE]
**Result** 12.9 µM

**Query** Identify the reported AC50 for the following entry. CCCCc1oc2ccc(NS(C)(=O)=O)cc2c1C(=O)c1ccc(OCCCN(CCCC)CCCC)cc1 [DRONEDARONE]
**Result** 7.76 µM

**Query** Identify the reported AC50 for the following entry. Cc1cc2c(cc1S(N)(=O)=O)S(=O)(=O)CCC2
**Result** > 30 µM
